- TARGET_OR_SYSTEM: T1, human PD-L1 (human, UniProt Q9NZQ7 19-238, limits assumed)
- T1 construct: Protein used in the Biacore assays of 3.1
- T1 sequence (Q9NZQ7 19-238 limits assumed): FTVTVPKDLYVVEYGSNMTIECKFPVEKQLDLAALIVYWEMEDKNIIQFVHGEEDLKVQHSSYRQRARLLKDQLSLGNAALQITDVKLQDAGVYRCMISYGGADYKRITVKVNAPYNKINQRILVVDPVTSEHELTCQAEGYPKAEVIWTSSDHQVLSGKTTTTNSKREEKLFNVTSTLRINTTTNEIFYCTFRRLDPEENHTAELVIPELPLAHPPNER
- PROTOCOL: Biacore kinetic profile
PROPERTY_MEASURED: t½ (h)
Use h as the unit, but write only the number.

Example entries and their recorded answers appear below.
| BINDER | t½, h |
| --- | --- |
| A09-214-1 (antibody, human IgG1, lambda, V domains shown, 193V read as I93V; also called VH-M31I, M33I, S63T, 193V) VH: EVQLLESGGGLVQPGGSLRLSCAASGFTFSIYIMMWVRQAPGKGLEWVSSIYPSGGITFYADTVKGRFTISRDNSKNTLYLQMNSLRAEDTAVYYCARIKLGTVTTVDYWGQGTLVTVSS VL: QSALTQPASVSGSPGQSITISCTGTSSDVGAYNYVSWYQQHPGKAPKLMIYDVSNRPSGVSNRFSGSKSGNTASLTISGLQAEDEADYYCSSYTSSSTRVFGTGTKVTVLG | 2.98 |
| A09-215-1 (antibody, human IgG1, lambda, V domains shown, 193V read as I93V; also called VH-M33L, M35F, S63T, 193V) VH: EVQLLESGGGLVQPGGSLRLSCAASGFTFSMYLMFWVRQAPGKGLEWVSSIYPSGGITFYADTVKGRFTISRDNSKNTLYLQMNSLRAEDTAVYYCARIKLGTVTTVDYWGQGTLVTVSS VL: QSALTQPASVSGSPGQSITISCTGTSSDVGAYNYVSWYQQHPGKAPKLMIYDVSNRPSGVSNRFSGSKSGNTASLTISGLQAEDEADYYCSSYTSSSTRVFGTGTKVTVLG | 0.843 |
| A09-188-1 (antibody, human IgG1, lambda, V domains shown, Parent antibody, lambda light chain, expressed as IgG) VH: EVQLLESGGGLVQPGGSLRLSCAASGFTFSMYMMMWVRQAPGKGLEWVSSIYPSGGITFYADSVKGRFTISRDNSKNTLYLQMNSLRAEDTAIYYCARIKLGTVTTVDYWGQGTLVTVSS VL: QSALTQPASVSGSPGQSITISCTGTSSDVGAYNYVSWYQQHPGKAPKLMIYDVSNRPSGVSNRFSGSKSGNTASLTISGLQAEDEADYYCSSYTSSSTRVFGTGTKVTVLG | 0.22 |
| A09-245-2 (antibody, human IgG1, lambda, V domains shown, also called VL-A31G; VH-M31S, M33L, M35F, S63T, I93V) VH: EVQLLESGGGLVQPGGSLRLSCAASGFTFSSYLMFWVRQAPGKGLEWVSSIYPSGGITFYADTVKGRFTISRDNSKNTLYLQMNSLRAEDTAVYYCARIKLGTVTTVDYWGQGTLVTVSS VL: QSALTQPASVSGSPGQSITISCTGTSSDVGGYNYVSWYQQHPGKAPKLMIYDVSNRPSGVSNRFSGSKSGNTASLTISGLQAEDEADYYCSSYTSSSTRVFGTGTKVTVLG | 1.29 |

Would you kindly look at the next entry?
Problem: Need t½ of A09-216-1 (antibody, human IgG1, lambda, V domains shown, 193V read as I93V; also called VH-M31I, M33L, S63T, 193V) VH: EVQLLESGGGLVQPGGSLRLSCAASGFTFSIYLMMWVRQAPGKGLEWVSSIYPSGGITFYADTVKGRFTISRDNSKNTLYLQMNSLRAEDTAVYYCARIKLGTVTTVDYWGQGTLVTVSS VL: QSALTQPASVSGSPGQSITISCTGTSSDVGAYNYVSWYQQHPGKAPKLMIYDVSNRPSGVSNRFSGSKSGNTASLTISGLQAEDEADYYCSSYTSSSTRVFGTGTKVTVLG , thanks.
Solution: 1.3

The origin of these recorded values is patent US20140341917A1.
